Ki reference
Target: UniProt P34969
Sequence (P34969 whole entry, species assumed): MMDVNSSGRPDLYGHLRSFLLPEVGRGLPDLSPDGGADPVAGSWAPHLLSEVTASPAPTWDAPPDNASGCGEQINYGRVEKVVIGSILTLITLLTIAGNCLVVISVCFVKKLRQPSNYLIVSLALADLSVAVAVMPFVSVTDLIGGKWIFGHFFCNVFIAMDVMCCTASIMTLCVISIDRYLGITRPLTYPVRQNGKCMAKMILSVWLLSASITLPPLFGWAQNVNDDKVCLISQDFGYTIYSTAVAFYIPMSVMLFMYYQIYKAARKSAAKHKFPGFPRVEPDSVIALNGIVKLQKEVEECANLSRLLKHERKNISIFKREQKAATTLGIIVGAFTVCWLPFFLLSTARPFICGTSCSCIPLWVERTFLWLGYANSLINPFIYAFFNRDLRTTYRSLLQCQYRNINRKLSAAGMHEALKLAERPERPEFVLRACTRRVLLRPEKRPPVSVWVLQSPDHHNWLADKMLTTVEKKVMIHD

>  <Compound>
CCCCCCCCCCCCNCCCc1ccccc1 [3a, N-(3-Phenylpropyl)dodecan-1-amine]

>  <Ki>
> 10 µM

$$$$
>  <Compound>
CCCCCCCNCCCc1ccccc1 [2a, N-(3-Phenylpropyl)heptan-1-amine]

>  <Ki>
> 10 µM

$$$$
>  <Compound>
CCCCCCCNCCCc1ccc([N+](=O)[O-])cc1 [2b]

>  <Ki>
0.9 µM

$$$$
>  <Compound>
CCCCCCCCCCCCNCCCc1ccc([N+](=O)[O-])cc1 [3b]

>  <Ki>
> 10 µM

$$$$

---

Test system: SF-268
Assay: Multiplex cytotoxicity assay
Type: cell-based
Settings: Homo sapiens, SF-268, read-out: IC50 SF-268
pIC50: −log10 of the molar value.
Property label: pIC50

>  <Test smiles>
CCCCCCCCCCCCNCCCc1ccccc1

>  <Property label>
pIC50

>  <Measured number>
4.22

$$$$
>  <Test smiles>
CCCCCCCNCCCc1ccccc1

>  <Property label>
pIC50

>  <Measured number>
4.20

$$$$
>  <Test smiles>
CCCCCCCNCCCc1ccc([N+](=O)[O-])cc1

>  <Property label>
pIC50

>  <Measured number>
4.40

$$$$
>  <Test smiles>
CCCCCCCCCCCCNCCCc1ccc([N+](=O)[O-])cc1

>  <Property label>
pIC50

>  <Measured number>
4.80

$$$$

FYI, the data here is from paper PMC3234165.
